Listing of entries alongside the reported growth.
# System: NCI-H226 lung
# Protocol Summary: NCI-60 one-dose screen, 48 h (100 = growth as untreated, 0 = no growth, -100 = all killed)
# Measurement Parameters: 10 µM unless noted
The panel holds about 83,000 compounds, 20% with a hit somewhere; the sample as a whole holds those more often.
The figure you give is taken to be in %; do not add the unit.

Known results for compounds:
>>> measured_value("CCN(CC)CCCNc1cc(OC)c(OC)c2cccnc12")
110
>>> measured_value("CC(C)(C)CC(C)(C)Nc1c(-c2c(O)c3ccccc3oc2=O)nc2sc3ccccc3n12")
56.7
>>> measured_value("Clc1ccc(-c2nc(C(Cl)Cl)nc3cc(-c4ccccc4)nn23)cc1")
84.6
>>> measured_value("COc1ccc(CN2C(=O)OC(C)(COC(C)=O)C2=O)cc1 (stereo unspecified)")
98.1
>>> measured_value("COc1cc(Cc2cc(-c3ccccc3)nn(Cc3ccccc3)c2=O)cc(OC)c1OC")
46.2
>>> measured_value("CCN(CC)CCOc1ccc(Nc2ncc3cc(-c4c(Cl)cccc4Cl)c(=O)n(CCOC)c3n2)cc1")
28
>>> measured_value("CNCCCNc1nc2ccccc2c2c(=O)c3cc(Cl)ccc3sc12")
101
>>> measured_value("CCCC(=O)NC(c1ccc2c(c1)OCO2)c1cc(Cl)c2cccnc2c1O (stereo unspecified)")
50.4

So what's the measured growth for this one? O=[N+]([O-])c1c(O)c(Cl)cc(Cl)c1Cl
94.4

Consider next the compound Cc1ccc(C2CC(c3cccc(Nc4ccncc4)c3)=Nc3c(N)nc(N)nc3N2)cc1 (stereo unspecified) in the same way.
88.9

Then this compound: Nc1nc(N(Cc2ccccc2)c2ccccc2)c2cn[nH]c2n1
98.3

* * *

# Tested on: SNB-75 CNS
# Protocol Summary: NCI-60 one-dose screen, 48 h (100 = growth as untreated, 0 = no growth, -100 = all killed)
# Measurement Parameters: 10 µM unless noted
The panel holds about 83,000 compounds, 20% with a hit somewhere; the sample as a whole holds those more often.
With a cut-off of 60%, any growth strictly below it is called 1.0; any growth meeting it or above is called 0.0.

Before answering, review these 3 worked examples.
>>> label_value("COc1ccc(-c2cc(-c3cn(-c4cccc(Cl)c4)nc3-c3ccc(OC)cc3)on2)cc1")
0.0
>>> label_value("CC[C@@H](C(=O)[C@@H](C)[C@@H](O)[C@H](C)[C@@H]1O[C@@H]([C@@H](CC)C(=O)ONC(=O)c2ccccc2O)CC[C@@H]1C)C1O[C@]2(C=CC(=O)[C@]3(CC[C@@](C)([C@H]4CC[C@](O)(CC)[C@H](C)O4)O3)O2)[C@H](C)C[C@@H]1C (some centres undefined)")
0.0
>>> label_value("CCn1cc(C(=O)N/N=C/c2ccccc2)c(=O)c2cc(F)c(N3CCNC(C)C3)c(F)c21 (centres undefined)")
0.0

hey, is growth for CCCCn1c(NC(C)=O)c(S(=O)(=O)c2ccccc2)c2nc3ccccc3nc21 lower than 60% or not?
0.0

Consider next the compound O=S(Nc1ccccc1)c1ccc(Cl)cc1 (centres undefined) in the same way.
0.0

Next up: COc1ccc(C(=O)C/C(=C\c2ccc(O)c(OC)c2)C(=O)NN)cc1
0.0

# repeat for O=S(O)c1cc(Cl)cc(Cl)c1OCc1ccccc1
0.0

CCN(CCNc1ccc(C)c2sc3cc(Cl)ccc3c(=O)c12)CC(C)(C)O ?
0.0

Continue with COc1ccc(/C=C2\c3cc(OC)c(OC)c(OC)c3CC[C@@H]2O)cc1F
1.0

Same lookup for N#Cc1c(-c2ccccc2)nc2c(c(-c3ccc(Cl)cc3)nn2-c2ccccc2)c1-c1ccc([N+](=O)[O-])cc1 , please.
0.0

Please do the same for Cc1nc2sc(C(=O)Nc3cccc4ccccc34)c(N)c2cc1C(=O)c1ccccc1 as well.
1.0

And CCN(CC)CCOc1ccc2c(-c3ccccc3)c(-c3ccc(OC)cc3)c(=O)oc2c1 ?
0.0

And CC(O)Cc1c[nH]c(=O)[nH]c1=O (centres undefined) ?
0.0

And then COc1ccc(Oc2ccc(/C=C/C(=O)c3ccc(OC)c(OC)c3)cc2)cc1 , what is it?
0.0

// repeat for COc1ccc2cc(-c3nc4ccc(C)cn4c3NCc3ccco3)c(=O)[nH]c2c1 and report
1.0

Hello, the source for this data is PubChem BioAssay (NCI), in case you need it.
